Below: a set of entries, each annotated with reported self-aminoacylation.
System: biotinyl-Val-oxazolone
Assay: self-aminoacylation, catalytic enhancement (BVO) (fold over background); higher = more active; k-Seq, kA / k0A0; sequences stand for … in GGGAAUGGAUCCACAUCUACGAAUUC…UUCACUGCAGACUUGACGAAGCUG
Variants at the floor of the assay were thinned out.
Give your answer as a number; write no unit.

Examples with their reported self-aminoacylation follow.
residue_codes: AUUAGCCUGGUCAUCCAGUGA [Fam2.1 aminoacylation ribozyme variant]
self-aminoacylation: 2.62
//
residue_codes: CUAAUUCAAACAAUCGGUUUG [Fam1A.1 aminoacylation ribozyme variant]
self-aminoacylation: 0.724

Query: Give the reported self-aminoacylation for this sequence. CCACACUUCAAGCUAUCGGAC [Fam1B.1 aminoacylation ribozyme variant]
Reply: 1.01

Query: Write down self-aminoacylation measured for item AUUCACCUAGGUCAUAGCGUG [Fam2.2 aminoacylation ribozyme variant]
Reply: 2.15

* * *

Tested on: biotinyl-Val-oxazolone
Assay: self-aminoacylation, catalytic enhancement (BVO) (fold over background); higher = more active; k-Seq, kA / k0A0; sequences stand for … in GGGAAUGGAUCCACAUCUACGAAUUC…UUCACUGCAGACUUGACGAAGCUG
This sample holds only a part of the variants without activity.
readout_name: self-aminoacylation
Could you keep your reply to the number by itself?

Examples with answers:
residue_codes: AUUAGCCUGGUGAUCGAGUGA [Fam2.1 aminoacylation ribozyme variant]
study_target: biotinyl-Val-oxazolone
result_value: 3.62

residue_codes: AAGUUAGCUAAUAGUCGCCAG [Fam3.1 aminoacylation ribozyme variant]
study_target: biotinyl-Val-oxazolone
result_value: 1.33

residue_codes: AAAUUUUCUAAUAGUCGCAAG [Fam3.1 aminoacylation ribozyme variant]
study_target: biotinyl-Val-oxazolone
result_value: 2.11

Query: Answer with the recorded self-aminoacylation for the sequence listed here: AUUCAUCUAGGUCAUCGGGUU [Fam2.2 aminoacylation ribozyme variant]
Reply: 2.03

Query: Assign self-aminoacylation to the following record: AUUACCCUGGUCUUCGAGUGG [Fam2.1 aminoacylation ribozyme variant]
Reply: 1.07

* * *

Test system: biotinyl-Leu-oxazolone
Assay: self-aminoacylation, catalytic enhancement (BLO) (fold over background); higher = more active; k-Seq, kA / k0A0; sequences stand for … in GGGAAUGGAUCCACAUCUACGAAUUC…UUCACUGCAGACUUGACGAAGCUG
Fewer inactive variants are shown than the library holds.
readout_name: self-aminoacylation
Give only the figure.

Look over these answered cases.
residue_codes: AUUCACCUAGGUCAUAGAGUG [Fam2.2 aminoacylation ribozyme variant]
readout_name: self-aminoacylation
result_value: 3.92

residue_codes: AUUCACGUAGGUCCUCGGGUG [Fam2.2 aminoacylation ribozyme variant]
readout_name: self-aminoacylation
result_value: 12.1

residue_codes: GCGUUUGCUAAUAGUCGCAAG [Fam3.1 aminoacylation ribozyme variant]
readout_name: self-aminoacylation
result_value: 2.65

residue_codes: AUUACCCUGGUCAUCCAAUGA [Fam2.1 aminoacylation ribozyme variant]
readout_name: self-aminoacylation
result_value: 1.47

residue_codes: AUGUUUGCCAAUAGUCGCAAG [Fam3.1 aminoacylation ribozyme variant]
readout_name: self-aminoacylation
result_value: 1.14

residue_codes: CCACACAUCAAGCACUCGGUC [Fam1B.1 aminoacylation ribozyme variant]
readout_name: self-aminoacylation
result_value: 0.724

residue_codes: AUUCACCUGGGGCAUCGGGUG [Fam2.2 aminoacylation ribozyme variant]
readout_name: self-aminoacylation
result_value: 5.93

residue_codes: CUACUUCAUAGAAUCGGUCUG [Fam1A.1 aminoacylation ribozyme variant]
readout_name: self-aminoacylation
result_value: 0.837

Could you now consider this next sequence?
Query: For GUUCACCUAGCUCAUCGGGUG [Fam2.2 aminoacylation ribozyme variant] , write its self-aminoacylation.
Reply: 2.06
